- System: 786-0
- ASSAY_SUMMARY: NCI tumour cell line growth inhibition, 48 h
Activity calls are given as the source filed them. Rule as the data show it: active = GI50 up to about 1.1 µM and inactive = higher.
MEASURE_NAME: GI50

Some molecules with known GI50 results, for comparison:
| MOLECULE | GI50 |
| --- | --- |
| Cc1c(C(=O)OCc2ccccc2)[n+]([O-])c2cc(F)c(F)cc2[n+]1[O-] | 4.58 µM (inactive) |
| COc1cc(COC(=O)N(C)[C@@H](Cc2ccccc2)C(=O)O)c([N+](=O)[O-])cc1OC | > 100 µM (inactive) |
| CC1(C)OCC([C@H]2CC23SCCCS3)O1 (some centres undefined) | > 100 µM (inactive) |

Lab note: next molecule to report on.
molecule S=C(/N=C1/NCC(CN2CCN(c3ccccc3)CC2)O1)Nc1ccccc1 (centres undefined) , GI50 observed: 76.7 µM (inactive)

###

- System: OVCAR-4
- ASSAY_SUMMARY: NCI tumour cell line growth inhibition, 48 h
Active and inactive are the calls of the source. Cut-off read from the data, not from the text of the source: active = GI50 up to about 1.1 µM and inactive = higher.
Answer with one of the outcomes given here: active, inactive

What did the test return for COC(=O)C(Cc1ccc2c(c1)CCC2)Cc1ccc2c(c1)CCC2 ?
inactive

Which outcome did this test record for the compound Nc1ccc2nc3n(c2c1)C(=O)c1ccccc1-3 ?
inactive

###

- System: A498
- ASSAY_SUMMARY: NCI tumour cell line growth inhibition, 48 h
The source made the active and inactive calls. Rule as the data show it: active = GI50 up to about 1.1 µM and inactive = higher.
Provide the recorded GI50 for the entries that follow.

Example compounds with recorded GI50:
| COMPOUND | MEASURED_ON | GI50 |
| --- | --- | --- |
| CCN1CCC(O)(C(C(=O)O)c2ccccc2)CC1 (stereo unspecified) | A498 | > 100 µM (inactive) |
| Cn1c(=O)[nH]c2nccnc2c1=O | A498 | > 10 µM (inactive) |
| O=[N+]([O-])c1ccc(NC(=S)Nc2ccccn2)cc1 | A498 | 12.8 µM (inactive) |
| COc1ccc(CN2C(=O)[C@@H]3Cc4c(OC)c(C)c(OC)c(OC)c4[C@H](/C2=C\c2cc(OC)c(OC)c(C)c2OC)N3C(=O)OC(C)C)cc1 | A498 | 27.3 µM (inactive) |

For every item below, please supply its GI50.
1. CCOC(=O)c1cc2c([nH]1)c(OC(C)=O)cc1c2ccn1Cc1ccccc1
2. c1ccc(C2=NC3OC2c2ccccc23)cc1 (stereo unspecified)

1. > 100 µM (inactive)
2. > 10 µM (inactive)

Go through the items and report each one's GI50.
1. S=c1scc(-c2ccc(Cl)cc2)n1OC1CCCC1
2. [N-]=[N+]=CC(=O)OC1CCc2ccccc21 (stereo unspecified)
3. CCOC(=O)C1CC(=O)C=C2CCCCC21 (stereo unspecified)
4. N#CCCN(CCN(CCN(C(=O)Nc1ccccc1)c1ccccc1)C(=O)Nc1ccccc1)C(=O)Nc1ccccc1
5. CC1(C)OCC([C@H]2CC23SCCCS3)O1 (stereo partly specified)
6. CCCCCCCCCCCCCCCCCCN(C)C(COC)COP(=O)([O-])OCC[N+](C)(C)C (stereo unspecified)

1: 26.1 µM (inactive); 2: > 100 µM (inactive); 3: > 100 µM (inactive); 4: > 100 µM (inactive); 5: > 100 µM (inactive); 6: 7.38 µM (inactive)

###

Please respond with reported GI50 for every item in the list.
- Tested on: CAKI-1
- ASSAY_SUMMARY: NCI tumour cell line growth inhibition, 48 h
Active and inactive are the calls of the source. Rule as the data show it: active = GI50 up to about 1.1 µM and inactive = higher. *1 amine or outer side, *2 acyl side, *3 side chain or, on linkers, in order; H or OH if unused. Where a SMILES comes first, the peptide text is derived from it. Bridges are numbered along the chain shown (N, C = ends). Roman numbers before positions name the chains, in order. [ ]: non-standard residue; d: D form. Actinocin(9to1) = Cc1c2oc3c(C)ccc(C(=O)[*:1])c3nc-2c(C(=O)[*:2])c(N)c1=O; Hyp = O=C(O)[CH]1C[CH](O)CN1; NMeV = CN[CH](C(=O)O)C(C)C; Sar = CNCC(=O)O

Consider the following illustrative entries.
| COMPOUND | GI50 |
| --- | --- |
| CC(=O)Nc1ccc(-c2cc(C(=O)O)c3cc4ccccc4cc3n2)cc1 | > 100 µM (inactive) |
| CN(C)Cc1cc(C(=O)/C=C/c2ccc(Cl)cc2)cc(CN(C)C)c1O | 6.05 µM (inactive) |
| Cn1nnnc1SC(F)(F)c1nc2ccccc2o1 | > 100 µM (inactive) |

Give GI50 for all compounds that follow.
1. COc1ccc2c3c1OC1C(=O)C=CC4(CC2)N(C)CCC314 (stereo not drawn)
2. COc1cc(OC)c(OC)cc1/C=C/c1ccccn1
3. CC(=O)c1cn(-c2ccc(Cl)cc2)c(=O)c2c(N)n[nH]c12
4. O=C(/C=C/c1ccc(OCc2ccccc2)cc1)NCc1ccc(C(=O)NCCc2c[nH]c3ccccc23)cc1

1: 20.1 µM (inactive); 2: > 10 µM (inactive); 3: > 100 µM (inactive); 4: 9.18 µM (inactive)

Please report GI50 for every entry that follows.
1. O=C1O/C(=C\c2ccc(O)c(Br)c2)C(c2ccc(O)cc2)=C1Cl
2. NC(Cc1ccccc1)C(=O)OCN1C(=O)C2C3C=CC(C2C1=O)C1C(=O)N(COC(=O)C(N)Cc2ccccc2)C(=O)C31 (stereo not drawn)
3. O=C1/C(=C/c2ccc(Cl)c(Cl)c2)CN(C(=O)CCN2CCOCC2)C/C1=C\c1ccc(Cl)c(Cl)c1
4. Cc1c2oc3c(C)ccc(C(=O)NC4C(=O)NC(C(C)C)C(=O)N5CC(O)CC5C(=O)N(C)CC(=O)N(C)C(C(C)C)C(=O)OC4C)c3nc-2c(C(=O)NC2C(=O)NC(C(C)C)C(=O)N3CC(O)CC3C(=O)N(C)CC(=O)N(C)C(C(C)C)C(=O)OC2C)c(N)c1=O (stereo not drawn) (I: TV[Hyp][Sar][NMeV] / II: TV[Hyp][Sar][NMeV]; ester I:1-I:C, II:1-II:C; linker I:N-II:N via Actinocin(9to1); configuration not given here)
5. O=C(O)CCC(C(=O)O)N1C(=O)c2ccccc2C1=O (stereo not drawn)
6. CCCC(=O)N[C@H]1C2C3CC4C5CC(C42)C1(C)C53 (stereo partly drawn)

1. 37 µM (inactive)
2. > 100 µM (inactive)
3. 1.51 µM (inactive)
4. > 1 µM (active)
5. > 100 µM (inactive)
6. > 100 µM (inactive)
